- EXPERIMENT DESCRIPTION: in vitro
- Parameters: species or system HB2, HEK293
- CONDITIONS USED: human, ccd841 cells
viability at 48 h, 10 µM overview
Give just the number in %; leave the unit off.

Cc1ccc(NC(=O)NC(=O)CCl)cc1 [PCM-0102623]
82.5
CN(CCC#N)C(=O)CCl [PCM-0102712]
79.6
CC(c1ccccc1)N1CCN(C(=O)CCl)CC1.Cl (stereo not drawn) [PCM-0102710]
72.5
C=CC(=O)Nc1cccc(C#N)c1 [PCM-0102956]
102
Cc1cccc(N(C(=O)CCl)C2C=CS(=O)(=O)C2)c1 (stereo not drawn) [PCM-0102579]
16.2
O=C(CCl)N1CCN(Cc2ccccc2)C1=O [PCM-0102919]
96.2
N#Cc1ccc(Cl)cc1NC(=O)CCl [PCM-0102700]
68.1
CC1CCN(C(=O)CCl)c2ccccc2S1 (stereo not drawn) [PCM-0102216]
52.4
CNC(=O)c1ccc(NC(=O)CCl)cc1 [PCM-0102267]
32.5
Cc1ccc(S(C)(=O)=O)cc1NC(=O)CCl [PCM-0102858]
66.6

Shifting focus to the compound that follows.
Prompt: Would you mind telling me what viability at 48 h, 10 µM value was observed for O=C(CCl)Nc1cc2c(cc1Br)OCCO2 [PCM-0102299] ?
Completion: 62.8

----------
- EXPERIMENT DESCRIPTION: in vitro
- Set-up: species or system CCD841, HEK293
- CONDITIONS USED: human, hb2 cells, read-out: HB-2 Cells Viability (%)
TEST READOUT: viability at 48 h, 10 µM (%)
Field format: number, assumed %, no unit text.

Illustrative cases are given below, each with its answer.
NC(=O)C1CCCCN1C(=O)CCl (centres unmarked) [PCM-0102203]
79.7
O=C(CCl)N1CCC(c2nc3ccccc3o2)CC1 [PCM-0102920]
40.1

Prompt: I have this molecule here, O=C(CCl)NC(=O)Nc1ccc2c(c1)OCCCO2 [PCM-0102910] , and I need its recorded viability at 48 h, 10 µM.
Completion: 67.5

Prompt: Could you tell me which viability at 48 h, 10 µM is on file for O=C(CCl)NC1CCN(C(=O)c2ccco2)CC1 [PCM-0102619] ?
Completion: 105

Prompt: Can you look up the measured viability at 48 h, 10 µM of N#Cc1oc2ccccc2c1NC(=O)CCl [PCM-0102252] for me?
Completion: 3.8

Prompt: Looking for the measured viability at 48 h, 10 µM of C=CC(=O)N1CC2CC3CC(C2)CC1C3 [PCM-0102443] , can you help?
Completion: 99.9

Prompt: Query: viability at 48 h, 10 µM; subject: O=C(CCl)N1N=C(c2cccs2)CC1c1ccco1 (centres unmarked) [PCM-0102295]
Completion: 5

----------
- TARGET: NUDT7 (Homo sapiens)
- Construct: residues 14-235, E. coli, pNIC28-Bsa4, N-terminal His6 tag removed by TEV, construct 26672 Da
- Sequence (P0C024 14-235): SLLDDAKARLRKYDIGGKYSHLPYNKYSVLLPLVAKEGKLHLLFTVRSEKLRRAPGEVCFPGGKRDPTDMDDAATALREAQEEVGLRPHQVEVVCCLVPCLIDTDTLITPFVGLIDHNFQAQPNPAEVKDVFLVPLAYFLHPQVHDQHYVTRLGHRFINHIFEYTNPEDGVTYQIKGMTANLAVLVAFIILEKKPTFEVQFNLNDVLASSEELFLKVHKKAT
- Set-up: Intact protein LC/MS covalent labelling, fragments in pools of five, 200 uM each, 4 °C
- CONDITIONS USED: 24 h, 4 °C, pool of five; 200 µM; covalent
Reported NUDT7 values for the following compounds.
# output: bare number, no unit

Prompt: Which value of NUDT7 has been reported for C=CC(=O)Nc1ccc(C(=O)O)cc1 [PCM-0102271] in the records?
Completion: 0

Prompt: Recorded NUDT7 for O=C1CC(C(F)(F)F)N(C(=O)CCl)c2ccccc2N1 (stereo not shown) [PCM-0102363] , please?
Completion: 0.28

Prompt: # query: NUDT7 of entry O=C(CCl)N=c1sccn1Cc1ccccc1Cl [PCM-0102550]
Completion: 0.11

Prompt: Query (compound): CNC(=O)C1CCCN1C(=O)CCl (stereo not shown) [PCM-0102518] ; field requested: NUDT7
Completion: 0

Prompt: Item O=C(CCl)NCC1CCCO1 (stereo not shown) [PCM-0102356] has what recorded NUDT7?
Completion: 0

Prompt: GET /values?readout=NUDT7&item= Cc1ccc([N+](=O)[O-])cc1NC(=O)CCl [PCM-0102098]
Completion: 0.12

Prompt: Which NUDT7 is reported for this compound? C=CC(=O)NC1CCN(C(C)=O)Cc2cc(F)ccc21 (stereo not shown) [PCM-0102635]
Completion: 0

Prompt: Reported NUDT7 for Cl.O=C(CCl)NC1CCN(C2CC2)CC1 [PCM-0103055] : what is it?
Completion: 0

Prompt: Which value of NUDT7 has been reported for C=CC(=O)Nc1sc2c(c1C#N)CCCC2 [PCM-0102455] in the records?
Completion: 1
